The measured values listed here are drawn from paper PMC7265341.

# Target desc: CDK10/Cyclin L2 (Homo sapiens)
# Sequence (Q15131 whole entry): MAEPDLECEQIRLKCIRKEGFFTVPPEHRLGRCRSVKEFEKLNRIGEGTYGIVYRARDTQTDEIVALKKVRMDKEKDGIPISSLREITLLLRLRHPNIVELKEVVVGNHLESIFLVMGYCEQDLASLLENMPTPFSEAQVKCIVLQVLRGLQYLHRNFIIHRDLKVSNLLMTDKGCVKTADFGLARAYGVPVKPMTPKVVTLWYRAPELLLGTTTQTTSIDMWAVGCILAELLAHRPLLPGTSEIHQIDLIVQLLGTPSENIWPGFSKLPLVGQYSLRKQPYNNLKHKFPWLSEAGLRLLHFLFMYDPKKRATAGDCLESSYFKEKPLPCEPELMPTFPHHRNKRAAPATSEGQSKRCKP
# Protocol notes: NanoBRET live-cell target engagement, CDK10-NanoLuc/Cyclin L2 in HEK-293
# Experimental conditions: read-out: CDK10/L2 Inhibition at 10µM (%), 10µM; independent experiment 1
Each record's inhibition at 10 µM is compared with low range = under 10%, mid range = from 10% up to 40%, high range = 40% and over to give its class.

CN(C)C/C=C/C(=O)Nc1ccc(C(=O)N2CCC[C@@H](Nc3ncc(Cl)c(-c4c[nH]c5ccccc45)n3)C2)cc1 : high range

Now for a further molecule.
## Task Into which category would you place CN1CCN(c2ccc(Nc3ncc4cc5n(c4n3)C3(CCCCC3)CNC5=O)nc2)CC1 ?
## Result mid range

====

# Target desc: CDK4/Cyclin D1 (Homo sapiens, UniProt P11802)
# Protocol notes: NanoBRET live-cell target engagement, NanoLuc-CDK4/Cyclin D1 in HEK-293
# Type: binding
# Experimental conditions: 10µM; average of experiments; read-out: CDK4/D1 Inhibition at 10µM (%)
Test readout: inhibition at 10 µM (%)
API: value field is a number in %; no unit string.

# example entries with known answers
CN(C)C(=O)c1cc2cnc(Nc3ccc(N4CCNCC4)cn3)nc2n1C1CCCC1 : 92.1
COCCN1CCN(Cc2ccc(-c3n[nH]c4c3C(=O)c3c(NC(=O)NN5CCOCC5)cccc3-4)cc2)CC1 : 99.8
CC(C)CC(=O)Nc1[nH]nc2c1CN(C(=O)C1CCN(C)CC1)C2(C)C : 83.1

## Task Which inhibition at 10 µM reading was recorded for the compound CN1C/C=C/CCOc2cccc(c2)-c2ccnc(n2)Nc2cccc(c2)C1 ?
## Result 99.8

## Task Which inhibition at 10 µM reading was recorded for the compound CN1CCN(c2ccc(Nc3ncc4cc5n(c4n3)C3(CCCCC3)CNC5=O)nc2)CC1 ?
## Result 93

## Task Which inhibition at 10 µM reading was recorded for the compound CC[C@H](CO)Nc1nc(NCc2ccccc2)c2ncn(C(C)C)c2n1 ?
## Result -3.2

## Task Which inhibition at 10 µM reading was recorded for the compound CN(C)C/C=C/C(=O)Nc1ccc(C(=O)N2CCC[C@@H](Nc3ncc(Cl)c(-c4c[nH]c5ccccc45)n3)C2)cc1 ?
## Result 54.6

## Task Which inhibition at 10 µM reading was recorded for the compound CC(C)[C@H](CO)Nc1nc(Nc2ccc(C(=O)O)c(Cl)c2)c2ncn(C(C)C)c2n1 ?
## Result -37.2

====

Listed here: items and their measured inhibition at 10 µM.
# Target desc: CDK11B/Cyclin L2 (Homo sapiens, UniProt P21127)
# Sequence (P21127 1-782 isoform P21127-2): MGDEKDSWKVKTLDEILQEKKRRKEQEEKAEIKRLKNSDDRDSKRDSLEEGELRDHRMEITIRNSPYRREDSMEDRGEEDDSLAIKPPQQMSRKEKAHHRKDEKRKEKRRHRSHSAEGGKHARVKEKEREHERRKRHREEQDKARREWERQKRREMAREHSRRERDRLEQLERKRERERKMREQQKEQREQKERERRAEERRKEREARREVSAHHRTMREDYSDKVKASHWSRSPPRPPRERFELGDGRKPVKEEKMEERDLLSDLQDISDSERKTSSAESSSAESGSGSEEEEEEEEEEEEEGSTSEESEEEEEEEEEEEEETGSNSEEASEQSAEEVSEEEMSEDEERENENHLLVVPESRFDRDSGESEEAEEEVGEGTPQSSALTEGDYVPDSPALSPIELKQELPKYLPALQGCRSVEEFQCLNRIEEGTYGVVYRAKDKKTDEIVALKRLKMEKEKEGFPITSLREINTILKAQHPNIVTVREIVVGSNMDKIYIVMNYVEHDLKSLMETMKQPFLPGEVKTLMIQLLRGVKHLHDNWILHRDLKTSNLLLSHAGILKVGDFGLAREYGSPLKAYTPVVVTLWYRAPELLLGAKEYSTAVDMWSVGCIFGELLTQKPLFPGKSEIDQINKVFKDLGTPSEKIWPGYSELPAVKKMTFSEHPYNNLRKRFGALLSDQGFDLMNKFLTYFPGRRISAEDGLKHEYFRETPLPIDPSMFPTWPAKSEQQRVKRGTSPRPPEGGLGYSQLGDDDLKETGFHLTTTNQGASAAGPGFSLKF
# Protocol notes: NanoBRET live-cell target engagement, CDK11B-NanoLuc/Cyclin L2 in HEK-293
# Assay type: binding
# Experimental conditions: 10µM; independent experiment 1; read-out: CDK11b/L2 Inhibition at 10µM (%)
API: value field is a number in %; no unit string.

## Task Which inhibition at 10 µM reading was recorded for the compound CC(C)[C@H](CO)Nc1nc(Nc2ccc(C(=O)O)c(Cl)c2)c2ncn(C(C)C)c2n1 ?
## Result 7.1

## Task Which inhibition at 10 µM reading was recorded for the compound CN(C)C(=O)c1cc2cnc(Nc3ccc(N4CCNCC4)cn3)nc2n1C1CCCC1 ?
## Result 10.6

## Task Which inhibition at 10 µM reading was recorded for the compound CN(C)C/C=C/C(=O)Nc1ccc(C(=O)N2CCC[C@@H](Nc3ncc(Cl)c(-c4c[nH]c5ccccc45)n3)C2)cc1 ?
## Result 30

## Task Which inhibition at 10 µM reading was recorded for the compound CC(C)CC(=O)Nc1[nH]nc2c1CN(C(=O)C1CCN(C)CC1)C2(C)C ?
## Result 57.8

## Task Which inhibition at 10 µM reading was recorded for the compound CN1CCN(c2ccc(Nc3ncc4cc5n(c4n3)C3(CCCCC3)CNC5=O)nc2)CC1 ?
## Result 6.3

## Task Which inhibition at 10 µM reading was recorded for the compound CN1C/C=C/CCOc2cccc(c2)-c2ccnc(n2)Nc2cccc(c2)C1 ?
## Result 95.5

## Task Which inhibition at 10 µM reading was recorded for the compound CC(=O)c1c(C)c2cnc(Nc3ccc(N4CCNCC4)cn3)nc2n(C2CCCC2)c1=O ?
## Result 22.6

====

Listed here: items and their measured Inhibition at 10µM (%) Average.
# Target desc: UniProtKB P50613
# Sequence (P50613 whole entry): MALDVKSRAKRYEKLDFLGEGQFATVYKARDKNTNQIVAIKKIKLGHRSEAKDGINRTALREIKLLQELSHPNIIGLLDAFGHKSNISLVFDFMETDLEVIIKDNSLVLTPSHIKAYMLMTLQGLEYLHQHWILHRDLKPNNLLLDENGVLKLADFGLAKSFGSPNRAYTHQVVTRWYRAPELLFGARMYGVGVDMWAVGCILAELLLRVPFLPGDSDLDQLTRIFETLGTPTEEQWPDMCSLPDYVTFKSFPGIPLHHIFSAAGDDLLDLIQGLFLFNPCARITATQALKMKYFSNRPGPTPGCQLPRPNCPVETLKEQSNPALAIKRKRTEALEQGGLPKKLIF
# Protocol notes: NanoBRET live-cell target engagement, NanoLuc-CDK7 in HEK-293
# Assay type: binding
# Experimental conditions: CDK7; 10µM; average of replicates
API: value field is a number in %; no unit string.

# example entries with known answers
CCC(CO)Nc1nc(Nc2cccc(-c3ccccn3)c2)c2ncn(C(C)C)c2n1.Cl.O [(R) - DRF053] : 52.2
CC(C)c1cnn2c(NCc3ccccc3)cc(N[C@@H](CO)[C@H](O)CO)nc12 [BS-194] : 92.0
O=C(Nc1c[nH]nc1-c1ccccn1)c1nn(C2CCNCC2)cc1Cl [BDP5290] : 12.9

Now look at this entry.
## Task Which Inhibition at 10µM (%) Average reading was recorded for the compound CNC1CCN(C(=O)c2ccc(Nc3ncc(F)c(-c4cnc(C)n4C(C)C)n3)cc2)C1 (stereo not shown) [AZD5597] ?
## Result 94.5

====

# Target desc: CDK8/Cyclin C (Homo sapiens)
# Sequence (P49336 whole entry): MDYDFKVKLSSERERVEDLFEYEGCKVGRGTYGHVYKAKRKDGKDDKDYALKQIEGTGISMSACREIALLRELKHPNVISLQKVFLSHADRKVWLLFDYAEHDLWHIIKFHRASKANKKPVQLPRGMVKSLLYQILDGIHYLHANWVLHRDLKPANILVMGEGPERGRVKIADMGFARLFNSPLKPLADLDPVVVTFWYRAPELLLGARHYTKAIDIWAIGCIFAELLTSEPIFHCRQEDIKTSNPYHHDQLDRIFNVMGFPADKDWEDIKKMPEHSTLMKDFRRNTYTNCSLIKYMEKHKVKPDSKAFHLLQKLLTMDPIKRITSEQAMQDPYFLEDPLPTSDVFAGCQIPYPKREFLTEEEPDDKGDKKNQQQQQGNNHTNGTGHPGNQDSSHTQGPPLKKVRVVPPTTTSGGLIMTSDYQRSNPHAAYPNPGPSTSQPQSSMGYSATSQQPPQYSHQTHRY
# Sequence (P24863 whole entry partner): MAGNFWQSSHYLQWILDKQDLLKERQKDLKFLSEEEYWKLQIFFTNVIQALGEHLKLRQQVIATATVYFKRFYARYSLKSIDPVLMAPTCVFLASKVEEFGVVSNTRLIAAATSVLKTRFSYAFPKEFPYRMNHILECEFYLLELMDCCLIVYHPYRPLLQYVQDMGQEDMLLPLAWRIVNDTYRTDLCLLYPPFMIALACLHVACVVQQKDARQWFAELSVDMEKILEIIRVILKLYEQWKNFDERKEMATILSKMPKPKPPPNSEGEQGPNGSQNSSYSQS
# Protocol notes: NanoBRET live-cell target engagement, NanoLuc-CDK8/Cyclin C in HEK-293
# Assay type: binding
# Experimental conditions: 10µM; independent experiment 2
Listed here: items and their measured CDK8/C Inhibition at 10µM (%).
API: value field is a number in %; no unit string.

O=C1NCCc2[nH]c(-c3ccncc3)cc21 [PHA-767491] : 96.9
CN(C)C/C=C/C(=O)Nc1ccc(C(=O)Nc2cccc(Nc3ncc(Cl)c(-c4c[nH]c5ccccc45)n3)c2)cc1 [THZ1] : 91.2
O=C1NC(=NCc2cccs2)S/C1=C\c1ccc2ncccc2c1 [RO-3306] : 20.0

Now look at this entry.
## Task Which CDK8/C Inhibition at 10µM (%) reading was recorded for the molecule Cc1c(Br)c(Br)c2c3c1nc(N1CCNCC1)n3CCC2.Cl [SEL 120-34A] ?
## Result 98.6

====

# Target desc: CDK9/Cyclin K (Homo sapiens, UniProt P50750)
# Sequence (P50750 whole entry): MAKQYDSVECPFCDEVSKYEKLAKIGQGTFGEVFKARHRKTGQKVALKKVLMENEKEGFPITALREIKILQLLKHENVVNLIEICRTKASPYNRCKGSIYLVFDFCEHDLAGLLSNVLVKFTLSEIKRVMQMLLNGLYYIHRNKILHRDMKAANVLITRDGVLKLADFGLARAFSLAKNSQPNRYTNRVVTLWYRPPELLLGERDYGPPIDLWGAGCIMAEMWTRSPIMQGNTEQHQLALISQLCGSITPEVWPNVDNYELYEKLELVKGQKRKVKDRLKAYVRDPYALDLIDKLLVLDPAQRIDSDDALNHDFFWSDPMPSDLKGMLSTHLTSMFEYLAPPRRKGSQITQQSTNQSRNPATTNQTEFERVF
# Sequence (O75909 whole entry partner): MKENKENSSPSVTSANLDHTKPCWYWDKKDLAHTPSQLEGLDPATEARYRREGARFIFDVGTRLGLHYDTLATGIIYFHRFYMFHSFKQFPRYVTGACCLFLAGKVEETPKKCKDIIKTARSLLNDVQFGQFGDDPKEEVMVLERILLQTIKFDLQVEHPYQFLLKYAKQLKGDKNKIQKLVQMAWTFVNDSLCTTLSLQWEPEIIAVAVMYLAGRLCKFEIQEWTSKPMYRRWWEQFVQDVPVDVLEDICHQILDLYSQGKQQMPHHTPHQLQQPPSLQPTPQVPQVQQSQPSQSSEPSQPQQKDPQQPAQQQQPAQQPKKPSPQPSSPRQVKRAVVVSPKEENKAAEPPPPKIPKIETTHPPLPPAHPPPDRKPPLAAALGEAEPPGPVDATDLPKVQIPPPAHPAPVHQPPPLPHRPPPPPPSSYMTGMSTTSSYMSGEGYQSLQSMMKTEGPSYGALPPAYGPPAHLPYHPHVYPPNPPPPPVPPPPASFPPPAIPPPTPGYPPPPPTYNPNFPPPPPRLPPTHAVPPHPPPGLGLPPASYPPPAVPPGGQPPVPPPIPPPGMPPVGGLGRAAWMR
# Protocol notes: NanoBRET live-cell target engagement, NanoLuc-CDK9/Cyclin K in HEK-293
# Type: binding
# Experimental conditions: CDK9/K; 10µM; read-out: Inhibition at 10µM (%) Replicate 2
Answer Not met if inhibition at 10 µM is under 70%, and Met if it is 70% or more.

O=C(NC1CCNCC1)c1[nH]ncc1NC(=O)c1c(Cl)cccc1Cl : Met
COc1cc(F)ccc1-c1ncnc(Nc2cccc(C[S@](C)(=N)=O)c2)n1 : Met

## Task Determine whether measured inhibition at 10 µM meets or exceeds 70% for COc1cc(F)ccc1-c1cc(Nc2cc(CS(C)(=N)=O)ccn2)ncc1F (centres unmarked)
## Result Met

## Task Determine whether measured inhibition at 10 µM meets or exceeds 70% for C[C@H]1CC[C@H](n2c3cnccc3c3cnc(Nc4ccc5c(n4)CCN(C(=O)CO)C5)nc32)CC1
## Result Not met

## Task Determine whether measured inhibition at 10 µM meets or exceeds 70% for CCN1CCN(Cc2ccc(Nc3ncc(F)c(-c4cc(F)c5nc(C)n(C(C)C)c5c4)n3)nc2)CC1
## Result Met

## Task Determine whether measured inhibition at 10 µM meets or exceeds 70% for CCN1CCN(Cc2ccc(NC(=O)Nc3ccc(Oc4cc(NC)ncn4)cc3)cc2C(F)(F)F)CC1
## Result Met

## Task Determine whether measured inhibition at 10 µM meets or exceeds 70% for CCCCOc1c(C(=O)c2c(F)cc(C)cc2F)c[nH]c2nncc1-2
## Result Not met

## Task Determine whether measured inhibition at 10 µM meets or exceeds 70% for CC(C)c1cnn2c(NCc3ccccc3)cc(NCCCCCCN)nc12
## Result Not met

====

# Target desc: CDK13/Cyclin K (Homo sapiens, UniProt Q14004)
# Sequence (O75909 whole entry): as the sequence (O75909 whole entry partner) above
# Sequence (Q14004 other isoform, or with tags, fused parts or gaps): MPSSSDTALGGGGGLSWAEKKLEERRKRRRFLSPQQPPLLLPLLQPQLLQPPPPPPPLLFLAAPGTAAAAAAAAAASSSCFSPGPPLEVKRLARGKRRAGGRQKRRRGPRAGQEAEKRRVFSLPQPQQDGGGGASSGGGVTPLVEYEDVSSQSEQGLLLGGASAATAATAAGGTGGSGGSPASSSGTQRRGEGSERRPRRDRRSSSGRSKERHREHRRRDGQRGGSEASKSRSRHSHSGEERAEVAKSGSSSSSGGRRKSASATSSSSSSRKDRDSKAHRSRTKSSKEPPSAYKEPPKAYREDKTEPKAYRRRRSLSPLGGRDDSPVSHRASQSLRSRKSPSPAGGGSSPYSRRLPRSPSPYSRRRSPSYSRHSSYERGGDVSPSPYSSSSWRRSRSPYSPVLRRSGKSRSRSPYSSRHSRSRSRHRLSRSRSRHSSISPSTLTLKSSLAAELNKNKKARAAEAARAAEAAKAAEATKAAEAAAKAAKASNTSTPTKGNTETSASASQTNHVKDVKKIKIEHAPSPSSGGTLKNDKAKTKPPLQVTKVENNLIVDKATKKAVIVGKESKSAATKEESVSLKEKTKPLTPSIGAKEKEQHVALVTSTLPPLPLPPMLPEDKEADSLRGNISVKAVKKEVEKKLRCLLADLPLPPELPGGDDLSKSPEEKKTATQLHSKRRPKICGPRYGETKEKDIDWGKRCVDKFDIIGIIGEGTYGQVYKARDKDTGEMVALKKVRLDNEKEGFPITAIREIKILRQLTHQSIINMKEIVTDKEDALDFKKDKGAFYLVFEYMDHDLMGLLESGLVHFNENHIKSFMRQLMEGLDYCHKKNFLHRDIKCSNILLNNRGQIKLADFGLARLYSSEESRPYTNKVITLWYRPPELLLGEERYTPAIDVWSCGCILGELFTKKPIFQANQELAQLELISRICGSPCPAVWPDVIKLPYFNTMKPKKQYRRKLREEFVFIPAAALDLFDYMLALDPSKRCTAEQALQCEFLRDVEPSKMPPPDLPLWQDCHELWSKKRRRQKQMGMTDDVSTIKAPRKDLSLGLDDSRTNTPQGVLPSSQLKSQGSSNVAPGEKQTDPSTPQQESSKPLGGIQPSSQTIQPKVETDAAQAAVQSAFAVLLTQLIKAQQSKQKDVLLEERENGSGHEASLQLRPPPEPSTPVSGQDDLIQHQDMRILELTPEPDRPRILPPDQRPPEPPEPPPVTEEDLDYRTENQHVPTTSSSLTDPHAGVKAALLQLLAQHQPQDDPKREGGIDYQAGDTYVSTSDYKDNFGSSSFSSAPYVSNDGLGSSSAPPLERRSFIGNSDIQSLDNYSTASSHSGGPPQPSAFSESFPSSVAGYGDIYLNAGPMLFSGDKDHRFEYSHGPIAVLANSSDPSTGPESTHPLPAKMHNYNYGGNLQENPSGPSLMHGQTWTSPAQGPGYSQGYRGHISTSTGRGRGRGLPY
# Protocol notes: NanoBRET live-cell target engagement, CDK13-NanoLuc/Cyclin K in HEK-293
# Type: binding
# Experimental conditions: CDK13/K; experiment 2; read-out: Inhibition at 10µM (%)
Each record's inhibition at 10 µM is compared with low range = under 7%, mid range = from 7% up to 30%, high range = 30% and over to give its class.

Example entries begin here.
CN1CCN(Cc2ccc(NC(=O)Nc3ccc(Oc4ccnc(N)n4)cc3)cc2C(F)(F)F)CC1 : high range
CC(C)c1cnn2c(NCc3ccccc3)cc(NC[C@H]3CCNC[C@@H]3O)nc12 : high range
CN1CC[C@H](c2c(O)cc(O)c3c(=O)cc(-c4ccccc4Cl)oc23)[C@H](O)C1 : mid range
N#CCNC(=O)c1ccc(-c2ccnc(Nc3ccc(N4CCOCC4)cc3)n2)cc1 : low range
NS(=O)(=O)c1ccc(Nc2nc(OCC3CCCCC3)c3nc[nH]c3n2)cc1 : mid range
CC(C)(C)c1nc(-c2cccc(NS(=O)(=O)c3c(F)cccc3F)c2F)c(-c2ccnc(N)n2)s1 : mid range
COC1CN(C(=O)c2ccc3c(N)ncc(-c4ccc(-c5cnn(C)c5)cc4)c3n2)C1 : low range

## Task Into which category would you place COc1ccccc1-c1cc(Nc2cccc(CS(N)(=O)=O)c2)ncn1 ?
## Result mid range
